target: T1, Recombinant HLA-DRB1*1501 protein (human); test: competition with a reference peptide, residual Europium fluorescence
T1 construct: also called DR1501
pIC50: −log10 of the molar value.
Measured endpoint: pIC50

In: // lookup pIC50 for SYATNMFATWSP [FVIII2194-2205, F2196A peptide]
Out: < 4.30

The measured values listed here are drawn from patent US20130116182A1.
